Give measured phosphorylation enrichment for each item. Keep answers brief.
Target: FGFR3 (UniProt P22607)
Sequence (P22607 whole entry, looked up): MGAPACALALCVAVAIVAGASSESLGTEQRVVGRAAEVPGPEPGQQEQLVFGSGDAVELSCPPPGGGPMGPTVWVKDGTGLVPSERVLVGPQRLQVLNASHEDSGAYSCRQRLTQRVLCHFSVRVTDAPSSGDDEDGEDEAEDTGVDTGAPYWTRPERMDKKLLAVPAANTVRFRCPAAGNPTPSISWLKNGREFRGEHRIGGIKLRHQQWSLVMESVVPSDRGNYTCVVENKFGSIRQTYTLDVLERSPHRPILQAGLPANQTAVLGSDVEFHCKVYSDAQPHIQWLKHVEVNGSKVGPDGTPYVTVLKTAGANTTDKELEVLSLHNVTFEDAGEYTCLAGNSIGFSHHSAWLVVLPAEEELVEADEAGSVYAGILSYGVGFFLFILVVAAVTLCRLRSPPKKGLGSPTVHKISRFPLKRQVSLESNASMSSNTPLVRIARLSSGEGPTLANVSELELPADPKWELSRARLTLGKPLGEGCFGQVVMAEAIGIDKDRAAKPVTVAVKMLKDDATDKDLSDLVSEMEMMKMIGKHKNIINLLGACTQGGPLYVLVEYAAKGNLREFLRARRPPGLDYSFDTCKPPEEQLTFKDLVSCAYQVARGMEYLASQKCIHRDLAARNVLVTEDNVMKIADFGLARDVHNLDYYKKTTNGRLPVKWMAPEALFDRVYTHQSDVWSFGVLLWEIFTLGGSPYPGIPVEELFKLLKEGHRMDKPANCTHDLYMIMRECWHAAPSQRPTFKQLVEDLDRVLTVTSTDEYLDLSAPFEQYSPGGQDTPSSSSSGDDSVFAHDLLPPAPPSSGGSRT
Assay: phosphorylation enrichment, bacterial display (enrichment ratio); higher = better substrate or ligand; peptides without Tyr show the background
The response must contain the number and no unit.

Q: Respond only with phosphorylation enrichment recorded for SSENPYATIKD [MEGF10_Y1030]
A: 0.53

Q: Dear colleague, please send me the reported phosphorylation enrichment for QSSALYEDHFL [ASS1_Y83_R86H_YF] when you can.
A: 0.46

Q: Item RHTRSYDFTEG [FGF7_Y56_M59T_YF] : provide phosphorylation enrichment
A: 0.382

Q: Return the recorded phosphorylation enrichment value; entry: AVLSLYASDRT [ACTA1_Y145_G148D]
A: 0.666

Q: Consider the sequence LAGRFYALKSM [CKB_Y174_YF] . State its measured phosphorylation enrichment.
A: 0.991

Q: Please report the measured phosphorylation enrichment for GFFDLYGGEKF [PTPN11_Y66_D61G_YF]
A: 0.575

Q: Given FEDALYTVLHR [UNC13D_Y61_YF] , respond with its phosphorylation enrichment.
A: 2.38

Q: State its phosphorylation enrichment: KWTVDYLSQVG [TYW5_Y48]
A: 0.63

Q: Return the recorded phosphorylation enrichment value; entry: PSTYRYERGSR [INPPL1_Y663_P659S]
A: 0.588

Q: Give me measured phosphorylation enrichment, please, for this sequence: RETSLYKACER [ASB2_Y162_P160S]
A: 0.558

Q: Please give measured phosphorylation enrichment of the following entry: QRIHNYFEHRF [HCN4_Y554_D553N_YF]
A: 0.374

Q: Return value of phosphorylation enrichment for input DVLEFYNSKKT [PAK1_Y131] , no commentary.
A: 0.718

Q: Identify phosphorylation enrichment associated with the sequence RCLKDYGEFEV [GINS1_Y156]
A: 0.82

Q: Annotate the sequence LSSETYVKSFT [F5_Y2149_M2148T_YF] with its measured phosphorylation enrichment.
A: 0.735

Q: Kindly indicate its recorded phosphorylation enrichment. Item: HTDDGYMPMSP [IRS1_Y612]
A: 0.757

Q: # return recorded phosphorylation enrichment for input PIYLYYLMDLS [ITGB2_Y131_D128Y]
A: 13.9

Q: Name the recorded phosphorylation enrichment of the sequence listed here: GGQSVYHVNLH [HINT1_Y109_H112N]
A: 0.376

Q: Return phosphorylation enrichment (reported value) for this sequence: RFGKVYKAHLF [ROR2_Y488_G490A]
A: 0.733

Q: Give phosphorylation enrichment for the following sequence: SRIWVYNHYRC [BRCA2_Y2621_W2626C]
A: 0.726

Q: Look up and state reported phosphorylation enrichment for SKEPYYVHCIK [MYO1D_Y586_R588H]
A: 0.664

Q: State, in one line, measured phosphorylation enrichment of FRTPGYREVVI [TNS2_Y673_A670T_YF]
A: 0.6

Q: State its phosphorylation enrichment for this sequence: KDPPDYKYQPR [SOX9_Y172_H169P]
A: 0.479

Q: Let me know recorded phosphorylation enrichment for TWSPKYTLRSH [STRN3_Y474_N471S] , thanks.
A: 0.529

Q: Return reported phosphorylation enrichment. Input sequence: GLPINYTTRRI [LAMA2_Y2894]
A: 0.415

Q: Could you please provide reported phosphorylation enrichment for VYSIDYYRVGG [NTRK2_Y706_T704I] ? Thanks!
A: 9.09

Q: Please list phosphorylation enrichment recorded for the sequence GRSTFYWPSPR [GAGE12J_Y10_R13S_YF]
A: 0.708

Q: Output phosphorylation enrichment of YLEEEYVKAVG [TF_Y674_G671E]
A: 0.893

Q: Supply recorded phosphorylation enrichment for GRLFAYPDTHC [CAT_Y358_R363C] here.
A: 0.687

Q: Answer with the recorded phosphorylation enrichment of PYSNSYENSLI [EPOR_Y489_P488S] only.
A: 0.854

---

Consider the following sequences; for each one, report its phosphorylation enrichment.
Tested on: c-Src
Assay: phosphorylation enrichment, bacterial display (enrichment ratio); higher = better substrate or ligand; peptides without Tyr show the background
Please give only the number in your answer, with no unit.

Q: Print c-Src phosphorylation enrichment for TESNNYIFKTL [FAM83B_Y637_YF] .
A: 0.642

Q: # lookup: c-Src phosphorylation enrichment, key = GGSDRYGSLRP [MYLK_Y846]
A: 0.452

Q: Give phosphorylation enrichment; test system c-Src; sequence WGTAEYDSVVA [MAP1A_Y1883]
A: 0.819

Q: # lookup: c-Src phosphorylation enrichment, key = STEAIYWRYSK [SH3PXD2B_Y42_R43W]
A: 3.47

Q: GET phosphorylation enrichment where system = c-Src and item = FGGLRYGFGGL [KRTAP20-2_Y13_V17G_YF]
A: 0.379

Q: Write down measured phosphorylation enrichment (c-Src) for this sequence. CSGNCYLDIRP [FBN1_Y1535_R1530C]
A: 0.609

Q: With c-Src as the test system, provide measured phosphorylation enrichment for this sequence: ENGPYYTSYPP [GDAP2_Y488]
A: 3.52

Q: Recall the reported phosphorylation enrichment of PEADKYRLTYA [FGG_Y300] when tested on c-Src.
A: 0.604

Q: // fetch phosphorylation enrichment for DSFWSYCNAVA [SLC20A2_Y436_S434W_YF] ; system: c-Src
A: 0.443

Q: Tell me its phosphorylation enrichment on c-Src: EFNLMYDGAKE [IRF6_Y97_T100A]
A: 0.584

Q: Report phosphorylation enrichment on c-Src for this entry: GLRFGYGGLGG [KRTAP20-2_Y15_V17G_YF]
A: 0.419

Q: State measured phosphorylation enrichment of the sequence FQGRRYDCDCD [CRYGS_Y21] with c-Src.
A: 0.471

Q: State, for c-Src, measured phosphorylation enrichment of the sequence listed here: EQYELHCEMGS [CBL_Y371_Y371H]
A: 0.61

Q: Lab note: record phosphorylation enrichment of FLNSSYINIST [IL23R_Y178_T175N_YF] tested on c-Src.
A: 0.317

Q: Look up and report phosphorylation enrichment, with c-Src as system, for CTTVHYNFMCN [TP53_Y234_I232V_YF]
A: 0.499

Q: // output phosphorylation enrichment; input IMAFFYMCDRA [CASD1_Y382_YF] ; system c-Src
A: 0.57

Q: For c-Src, give the measured phosphorylation enrichment of the entry RHTRSYDFTEG [FGF7_Y56_M59T_YF]
A: 0.351

---

Biological target: c-Src SH2;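 further: peptide library displayed on the E. coli surface as eCPX fusions, selected cells deep-sequenced, score is each peptide's frequency after selection divided by its frequency in the input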
Test: SH2 binding enrichment of the phosphorylated peptide, bacterial display (enrichment ratio); higher = better substrate or ligand; peptides without Tyr show the background
Provide the reported SH2 binding enrichment of each item.

Q: Answer with the recorded SH2 binding enrichment of LARDMYDKEYY [MET_Y1230] only.
A: 1.37

Q: Kindly indicate its recorded SH2 binding enrichment. Item: KGEPQYSSHSS [SIPA1L3_Y1265]
A: 0.411

Q: Using the record for AAYNKYDQERF [CDC73_Y293_R292K] , state its measured SH2 binding enrichment.
A: 0.58

Q: Specify SH2 binding enrichment for PVFEVYPLLNC [GATA1_Y78_Q76E] and stop.
A: 0.551

Q: Provide measured SH2 binding enrichment value, entry: FSVDGYDSSVR [KCNQ1_Y461]
A: 0.688

Q: Report SH2 binding enrichment for VHFLVYHHHHH [CACNA1H_Y519_H516Y_YF]
A: 0.791

Q: Report SH2 binding enrichment, nothing else, for this sequence: VYPATYHPDHW [EFCAB12_Y544]
A: 0.53

Q: Complete the entry with SH2 binding enrichment for QEIATYRRLPE [KRT16_Y417_L421P]
A: 0.441

Q: Look up SH2 binding enrichment of KWRGQYDVAIR [BTK_Y425_K430R] and report it.
A: 1.74

Q: Fill in SH2 binding enrichment for record LKTNWYNNGKD [DNMT3B_Y404_C403W]
A: 0.464

Q: # return recorded SH2 binding enrichment for entry QDEHGYISWCF [HSPB1_Y133_R136W]
A: 0.545

Q: Determine from records and report SH2 binding enrichment for SKGYAYVHFDS [PABPC5_Y149]
A: 11.1

Q: Look up and state reported SH2 binding enrichment for FKEQGYHRLPP [RIN1_Y681_YF]
A: 0.742

Q: Report measured SH2 binding enrichment; entry is LDFNEYFRGLN [HPRT1_Y198_D201G_YF]
A: 0.862

---

Target: Hck (UniProt P08631)
Sequence (P08631 whole entry, looked up): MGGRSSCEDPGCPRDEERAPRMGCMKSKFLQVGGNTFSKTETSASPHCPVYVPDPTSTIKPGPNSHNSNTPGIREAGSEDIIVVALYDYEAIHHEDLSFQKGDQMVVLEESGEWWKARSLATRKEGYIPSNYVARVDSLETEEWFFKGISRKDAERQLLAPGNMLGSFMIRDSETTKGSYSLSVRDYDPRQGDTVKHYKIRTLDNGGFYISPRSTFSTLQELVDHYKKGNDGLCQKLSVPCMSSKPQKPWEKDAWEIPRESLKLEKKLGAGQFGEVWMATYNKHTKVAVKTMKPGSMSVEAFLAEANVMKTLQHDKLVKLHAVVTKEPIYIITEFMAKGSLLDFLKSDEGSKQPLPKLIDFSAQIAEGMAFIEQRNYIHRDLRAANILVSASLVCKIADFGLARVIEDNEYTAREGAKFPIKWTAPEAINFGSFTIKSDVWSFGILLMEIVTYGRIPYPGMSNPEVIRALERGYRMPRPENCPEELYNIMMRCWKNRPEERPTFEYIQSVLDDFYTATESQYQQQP
Assay: phosphorylation enrichment, bacterial display (enrichment ratio); higher = better substrate or ligand; peptides without Tyr show the background
phosphorylation enrichment class ranges: lower band (below 0.4), central band (0.4 to below 0.8), upper band (0.8 or more)

Q: Hi, small favor: classify LGRTRYQDVTG [MIPEP_Y510_H512D] by its phosphorylation enrichment when you get a moment.
A: lower band

Q: For SSENPYATIKD [MEGF10_Y1030] , which phosphorylation enrichment bin applies?
A: upper band

Q: Assign a bin to FRDALYKFIVD [PHEX_Y250_M253I_YF]
A: central band

Q: Lab note: which band did STEAIYWRYSK [SH3PXD2B_Y42_R43W] land in?
A: upper band

Q: Which category does the recorded phosphorylation enrichment put NTQRPHYKGGG [TYROBP_Y111_Y111H] in?
A: lower band

Q: Category of DLQDEYDFKCK [STAT1_Y170] :
A: central band

Q: Hello team, could you let me know which band the following sequence falls into: LAARFYNWVCF [FLT4_Y1231_S1235C_YF]
A: upper band

Q: Which bin, given its phosphorylation enrichment, does TVHCDYLNISH [TAF1L_Y1385_P1389S] occupy?
A: central band

Q: Lab log: MSPPGYKLVTG [GJA1_Y286] — assign phosphorylation enrichment category
A: central band

Q: Band of LSSEMCVKSYT [F5_Y2149_Y2149C] ?
A: upper band

Q: Hi, small favor: classify DTERIYDDDFF [UBA1_Y560] by its phosphorylation enrichment when you get a moment.
A: central band

From: the supplement of paper PMC10065799
